Molecular target: DNA-dependent protein kinase catalytic subunit (Homo sapiens)
Sequence (P78527 whole entry): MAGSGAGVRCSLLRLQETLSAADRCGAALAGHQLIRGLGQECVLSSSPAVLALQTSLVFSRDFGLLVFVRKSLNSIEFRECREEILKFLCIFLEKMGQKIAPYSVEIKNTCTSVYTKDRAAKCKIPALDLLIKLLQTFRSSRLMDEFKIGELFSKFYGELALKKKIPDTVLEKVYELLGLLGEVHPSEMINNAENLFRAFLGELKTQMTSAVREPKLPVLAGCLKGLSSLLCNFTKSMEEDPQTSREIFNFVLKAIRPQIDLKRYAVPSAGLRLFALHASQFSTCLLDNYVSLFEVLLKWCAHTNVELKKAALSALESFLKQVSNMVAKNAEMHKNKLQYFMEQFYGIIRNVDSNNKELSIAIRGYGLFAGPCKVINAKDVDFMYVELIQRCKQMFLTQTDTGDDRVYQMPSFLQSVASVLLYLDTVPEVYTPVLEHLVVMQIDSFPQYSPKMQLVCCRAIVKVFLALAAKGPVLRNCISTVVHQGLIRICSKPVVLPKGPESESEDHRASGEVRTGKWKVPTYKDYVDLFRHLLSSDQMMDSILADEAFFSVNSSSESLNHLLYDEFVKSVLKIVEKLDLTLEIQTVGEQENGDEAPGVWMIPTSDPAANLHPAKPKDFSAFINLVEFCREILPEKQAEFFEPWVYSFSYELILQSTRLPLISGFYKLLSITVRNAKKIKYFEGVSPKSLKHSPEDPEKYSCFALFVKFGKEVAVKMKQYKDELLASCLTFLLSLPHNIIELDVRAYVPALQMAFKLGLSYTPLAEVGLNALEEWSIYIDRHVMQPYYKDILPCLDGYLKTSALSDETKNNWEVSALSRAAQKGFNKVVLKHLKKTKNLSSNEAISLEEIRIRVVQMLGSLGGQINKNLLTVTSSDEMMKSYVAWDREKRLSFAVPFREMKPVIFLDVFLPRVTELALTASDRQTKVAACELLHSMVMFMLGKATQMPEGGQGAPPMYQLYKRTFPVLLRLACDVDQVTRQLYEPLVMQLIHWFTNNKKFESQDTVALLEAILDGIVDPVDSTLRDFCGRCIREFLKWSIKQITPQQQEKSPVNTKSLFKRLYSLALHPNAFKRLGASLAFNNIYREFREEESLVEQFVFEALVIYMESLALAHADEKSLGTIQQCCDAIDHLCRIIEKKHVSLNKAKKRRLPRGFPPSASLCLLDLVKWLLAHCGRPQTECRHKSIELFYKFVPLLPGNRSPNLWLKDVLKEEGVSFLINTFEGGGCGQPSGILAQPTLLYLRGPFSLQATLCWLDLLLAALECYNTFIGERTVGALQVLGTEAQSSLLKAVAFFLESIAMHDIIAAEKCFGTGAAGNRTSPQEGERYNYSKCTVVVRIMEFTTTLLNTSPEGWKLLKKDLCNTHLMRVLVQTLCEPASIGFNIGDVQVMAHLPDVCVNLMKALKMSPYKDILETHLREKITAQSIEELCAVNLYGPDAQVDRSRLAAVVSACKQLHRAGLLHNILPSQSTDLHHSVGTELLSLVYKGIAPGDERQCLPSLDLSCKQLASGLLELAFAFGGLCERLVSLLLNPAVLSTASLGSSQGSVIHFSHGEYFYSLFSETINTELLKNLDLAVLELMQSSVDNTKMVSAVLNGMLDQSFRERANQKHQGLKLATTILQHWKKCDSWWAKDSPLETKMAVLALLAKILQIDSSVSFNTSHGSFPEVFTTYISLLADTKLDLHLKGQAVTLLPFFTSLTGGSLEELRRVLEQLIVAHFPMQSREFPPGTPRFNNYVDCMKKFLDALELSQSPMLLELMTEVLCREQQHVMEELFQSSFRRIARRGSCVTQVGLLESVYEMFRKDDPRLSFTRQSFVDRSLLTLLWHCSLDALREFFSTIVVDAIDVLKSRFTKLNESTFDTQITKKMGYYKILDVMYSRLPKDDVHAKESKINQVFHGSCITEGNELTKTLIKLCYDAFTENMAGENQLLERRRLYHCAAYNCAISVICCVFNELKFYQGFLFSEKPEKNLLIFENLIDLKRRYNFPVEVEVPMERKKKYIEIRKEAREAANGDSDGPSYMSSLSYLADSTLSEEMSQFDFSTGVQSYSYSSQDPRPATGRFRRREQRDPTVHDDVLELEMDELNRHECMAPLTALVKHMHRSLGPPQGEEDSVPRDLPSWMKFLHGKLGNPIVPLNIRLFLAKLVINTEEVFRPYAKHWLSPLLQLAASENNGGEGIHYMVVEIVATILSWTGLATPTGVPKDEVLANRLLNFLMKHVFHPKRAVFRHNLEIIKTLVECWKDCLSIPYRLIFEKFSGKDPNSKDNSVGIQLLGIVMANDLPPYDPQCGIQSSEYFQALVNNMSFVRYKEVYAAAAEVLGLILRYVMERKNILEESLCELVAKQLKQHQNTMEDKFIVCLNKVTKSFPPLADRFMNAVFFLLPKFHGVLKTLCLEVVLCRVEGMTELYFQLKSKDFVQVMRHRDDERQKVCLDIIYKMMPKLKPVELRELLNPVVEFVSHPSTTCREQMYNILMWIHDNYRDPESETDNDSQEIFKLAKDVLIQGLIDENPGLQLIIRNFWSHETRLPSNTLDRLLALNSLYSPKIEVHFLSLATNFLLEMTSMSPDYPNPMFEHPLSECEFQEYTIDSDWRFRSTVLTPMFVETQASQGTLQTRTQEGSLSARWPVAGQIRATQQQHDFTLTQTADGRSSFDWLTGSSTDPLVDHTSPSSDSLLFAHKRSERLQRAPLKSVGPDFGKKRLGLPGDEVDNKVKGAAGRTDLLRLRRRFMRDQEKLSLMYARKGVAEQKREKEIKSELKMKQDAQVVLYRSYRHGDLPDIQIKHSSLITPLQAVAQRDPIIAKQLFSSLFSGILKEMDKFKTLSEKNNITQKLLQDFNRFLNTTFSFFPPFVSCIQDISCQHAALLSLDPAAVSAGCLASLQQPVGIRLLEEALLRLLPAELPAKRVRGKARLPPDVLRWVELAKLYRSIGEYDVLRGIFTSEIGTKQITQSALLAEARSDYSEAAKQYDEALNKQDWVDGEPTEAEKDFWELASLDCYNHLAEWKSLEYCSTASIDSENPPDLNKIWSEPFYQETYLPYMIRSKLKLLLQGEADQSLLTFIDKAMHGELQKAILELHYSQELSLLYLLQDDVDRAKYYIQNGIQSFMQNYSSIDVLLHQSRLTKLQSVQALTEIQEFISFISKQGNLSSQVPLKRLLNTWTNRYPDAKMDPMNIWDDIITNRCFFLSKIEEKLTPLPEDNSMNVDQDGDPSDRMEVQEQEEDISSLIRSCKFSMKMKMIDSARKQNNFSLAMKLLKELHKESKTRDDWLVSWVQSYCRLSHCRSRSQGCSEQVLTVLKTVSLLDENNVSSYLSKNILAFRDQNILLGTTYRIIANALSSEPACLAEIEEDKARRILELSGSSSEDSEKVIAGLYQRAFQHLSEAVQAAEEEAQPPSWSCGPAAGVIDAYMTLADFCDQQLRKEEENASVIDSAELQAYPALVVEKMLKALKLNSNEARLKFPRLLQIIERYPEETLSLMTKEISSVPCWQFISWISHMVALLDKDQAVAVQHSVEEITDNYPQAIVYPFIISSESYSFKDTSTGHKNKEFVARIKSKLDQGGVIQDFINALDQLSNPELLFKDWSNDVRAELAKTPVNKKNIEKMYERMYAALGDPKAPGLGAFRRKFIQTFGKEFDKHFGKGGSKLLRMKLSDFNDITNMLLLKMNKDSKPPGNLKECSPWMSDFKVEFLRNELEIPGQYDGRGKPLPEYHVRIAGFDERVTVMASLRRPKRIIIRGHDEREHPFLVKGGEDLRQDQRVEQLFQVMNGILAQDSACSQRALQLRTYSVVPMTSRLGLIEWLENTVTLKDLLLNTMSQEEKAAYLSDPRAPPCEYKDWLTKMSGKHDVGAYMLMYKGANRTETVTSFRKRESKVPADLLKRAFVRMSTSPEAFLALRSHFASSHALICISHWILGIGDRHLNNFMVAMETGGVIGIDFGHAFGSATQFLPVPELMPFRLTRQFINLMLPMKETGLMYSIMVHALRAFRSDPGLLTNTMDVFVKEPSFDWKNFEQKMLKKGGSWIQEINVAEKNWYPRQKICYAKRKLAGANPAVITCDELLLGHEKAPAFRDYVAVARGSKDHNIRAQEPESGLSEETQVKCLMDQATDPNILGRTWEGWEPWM
Test: Inhibition of DNA-PK
pIC50: −log10 of the molar value.
MEASURED ENDPOINT: pIC50

The reported pIC50 of the compound COc1ccc(-c2ccc3c(N4CCOCC4)nc(N4C[C@@H](C)O[C@@H](C)C4)nc3n2)cc1CO was < 5.00

* * *

MEASURED ENDPOINT: IC50

IC50 of COc1ccc(-c2ccc3c(N4CCOCC4)nc(N4C[C@@H](C)O[C@@H](C)C4)nc3n2)cc1CO [Ku-0063794] , assay on Serine/threonine-protein kinase ATR (Homo sapiens, UniProt Q13535), is > 10 µM

* * *

Exercise: for every item that follows, state its recorded log10(IC50).
Assay: Inhibition of mTOR in human HeLa cells using 4E-BP1 substrate by ELISA
Assay type: cell-based
Reminder: these figures are log10 of reported IC50, in nM before transformation.

Per the record, COc1ccc(-c2ccc3c(N4CCOCC4)nc(N4C[C@@H](C)O[C@@H](C)C4)nc3n2)cc1CO [Ku-0063794] has log10(IC50) of 1.20

log10(IC50) reported for this compound C[C@@H]1CN(c2nc(N3CCOCC3)c3ccc(-c4ccc(O)cc4)nc3n2)C[C@H](C)O1 : 1.59

Entry CC1CCCCN1c1nc(N2CCOCC2)c2cccnc2n1 (racemic) , log10(IC50) reported as 3.00

Briefly, log10(IC50) measured for C[C@H]1CCCCN1c1nc(N2CCCOCC2)c2cccnc2n1 : 3.68

The reported log10(IC50) of the compound C[C@@H]1CN(c2nc(N3CCOCC3)c3ccc(Nc4ccccc4)nc3n2)C[C@H](C)O1 was 2.08

Entry C[C@@H]1CCCCN1c1nc(N2CCOCC2)c2cccnc2n1 , log10(IC50) reported as 3.08

GET /value?item= C[C@@H]1CN(c2nc(N3CCOCC3)c3ccc(-c4ccccc4)nc3n2)C[C@H](C)O1 &field=log10(IC50) returns 1.79

log10(IC50) recorded for this compound, C[C@@H]1CN(c2nc(N3CCOCC3)c3ccc(Nc4ccncc4)nc3n2)C[C@H](C)O1 , is 1.94

The compound listed as C[C@@H]1CN(c2nc(N3CCOCC3)c3ccc(-c4ccsc4)nc3n2)C[C@H](C)O1 has a reported log10(IC50) of 1.52

Recorded log10(IC50) (compound C[C@H]1CCCCN1c1nc(N2CCOCC2)c2cccnc2n1 ): 2.84

For C[C@@H]1CN(c2nc(N3CCOCC3)c3ccc(-c4cccc(CO)c4)nc3n2)C[C@H](C)O1 the compound record lists log10(IC50) as 1.97

Per the records, this compound ( C[C@@H]1CN(c2nc(N3CCOCC3)c3ccc(-c4ccoc4)nc3n2)C[C@H](C)O1 ) has log10(IC50) equal to 2.08

Noted for CC1CCCN(c2nc(N3CCOCC3)c3cccnc3n2)C1 (stereo not given) : its log10(IC50) reads 3.48

Per the record, COc1cccc(-c2ccc3c(N4CCOCC4)nc(N4C[C@@H](C)O[C@@H](C)C4)nc3n2)c1 has log10(IC50) of 2.69

For reference, reported log10(IC50) for C[C@H]1COCCN1c1nc(N2CCOCC2)c2cccnc2n1 stands at 3.26

For this compound ( C[C@@H]1CN(c2nc(N3CCOCC3)c3cccnc3n2)C[C@H](C)O1 ), measured log10(IC50) is 3.11

// log10(IC50) value for C[C@@H]1CN(c2nc(N3CCOCC3)c3ccc(-c4cccc(O)c4)nc3n2)C[C@H](C)O1 : 1.72

The compound listed as C[C@@H]1CN(c2nc(N3CCOCC3)c3ccc(-c4ccncc4)nc3n2)C[C@H](C)O1 has a reported log10(IC50) of 2.34

Quick note, log10(IC50) for C[C@@H]1CN(c2nc(N3CCOCC3)c3ccc(-c4ccc(O)c(CO)c4)nc3n2)C[C@H](C)O1 landed at 1.57

Kindly note the recorded log10(IC50) for COc1ccc(-c2ccc3c(N4CCOCC4)nc(N4C[C@@H](C)O[C@@H](C)C4)nc3n2)cc1 , which is 1.65
